# Test Method Notes: Clearance in Sprague-Dawley rat at 0.25 mg/kg, iv
# Format: ADME, organism-based
# Reported Conditions: in vivo
Property Name: clearance (mL/min/kg)
Give a bare numeral; the unit mL/min/kg is implied.

// fetch clearance given entry CC(C)(C#N)n1nnc2c1CCC(c1nc(-c3ccc(F)cc3)no1)C2 (stereo unspecified) 4

---

// values below are reported Cmax
# Test Method Notes: Cmax in Sprague-Dawley rat plasma at 3 mg/kg, po
# Type: ADME, organism-based
# Set-up: dose 3 mg/kg, route oral
Give a bare numeral; the unit nM is implied.

Record excerpt, results attached:
[[record]]
compound = "CC(C)(C)n1nnc2c1CCC(c1nc(-c3ccc(F)cc3)no1)C2 (stereo not drawn)"
property_name = "Cmax"
experimental_value = 438

[[record]]
compound = "CC(C)(C#N)n1nnc2c1CCC(c1nc(-c3ccc(F)cc3)no1)C2 (stereo not drawn)"
property_name = "Cmax"
experimental_value = 891


Let us examine a further case.
// fetch Cmax given entry CC(C)(C)n1nnc2c1CCC(n1cnc(-c3ccc(F)cc3)n1)C2 (stereo not drawn) 1950
